System: HOP-62
Test description: NCI tumour cell line growth inhibition, 48 h
Active and inactive are the calls of the source. Cut-off read from the data, not from the text of the source: active = GI50 up to about 1.1 µM and inactive = higher.
We begin with a simple list: items and their reported GI50.
Measure name: GI50

>>> assay_result("Cc1ccc(C)c(NC(=O)CCC(=O)CC(=O)C(C)(C)C)c1")
"> 100 µM (inactive)"
>>> assay_result("COC(=O)c1cc2c(cc1Cl)Sc1nnc(Nc3ccc(C)cc3)n1S2(=O)=O")
"8.89 µM (inactive)"
>>> assay_result("COC(=O)Cc1cc(O)c2c(c1O)C(=O)c1ccccc1C2=O")
"24.3 µM (inactive)"
>>> assay_result("CC(C)/C=C1\\CCC(CN(C)C)C1=O (stereo unspecified)")
"18.4 µM (inactive)"
>>> assay_result("C[C@H]1CC[C@H]([C@@H](C)[C@H]2[C@@H](O)C[C@H]3[C@@H]4CC[C@H]5C[C@@H](O)CC[C@]5(C)[C@H]4CC[C@]23C)NC1")
"23.7 µM (inactive)"
>>> assay_result("C=CCOc1ccc(C(=N/NC(=O)c2ccccc2)/N=N/c2ccc([N+](=O)[O-])cc2)cc1OC")
"> 100 µM (inactive)"
>>> assay_result("CN(/N=C/c1ccccn1)C1=NCCN1")
"> 100 µM (inactive)"
>>> assay_result("c1ccc2c(CNCCCCCCCCNCc3cccc4ccccc34)cccc2c1")
"16.4 µM (inactive)"
>>> assay_result("O=C(NCC(=O)N1CCOC1=O)OCc1ccccc1")
"> 100 µM (inactive)"
>>> assay_result("c1ccc2c(c1)Nc1cccc3c1c-2nc1cc2ccccc2cc13")
"1.72 µM (inactive)"
>>> assay_result("COc1cc(Nc2cnc3ccc(C(F)(F)F)cc3n2)cc(OC)c1OC")
"23.9 µM (inactive)"

Taken from ChEMBL document CHEMBL1201862.
